Reference source for all entries: the array DNA melting data of Ke et al. (doi:10.1101/2024.01.08.574731)

- procedure.text: folding enthalpy; higher = less favourable; fluorescence melt of hairpins on a sequencing array, two-state fit
- setup.conditions: sodium 0.088 M
measured.quantity: folding enthalpy (kcal/mol)
Numeric answer only, unit kcal/mol assumed.

Task: Return reported folding enthalpy. Input sequence: GATATACCGAAAGGTATC (((..(((....))))))
Output: -13.3

Task: Fill in reported folding enthalpy for this entry: GTCTCCGAAAGGACAGAC ((((((....)))..)))
Output: -17.3

Task: Dear colleague, please send me the reported folding enthalpy for GTCGGCGAAAGCCTTGAC ((((((....)))..))) when you can.
Output: -13

Task: Look up and report measured folding enthalpy for this entry: GATTTGCCGAAAGGCATC (((..(((....))))))
Output: -5.81

Task: Consider the sequence GGGTCCGAAAGGACTCCC ((((((....)))..))) . State its measured folding enthalpy.
Output: -11

Task: Tell us which folding enthalpy value is on record for GATCAAGTTCTTGATC ((((((....))))))
Output: -38.6

Task: Provide only the value of recorded folding enthalpy for GCCTTGCGAAAGCCATGC ((.(.((....)).).))
Output: -3.66

Task: Give reported folding enthalpy value for GAACCACGAAAGTGCTTC (((.(((....))).)))
Output: -17.1

Task: For the sequence GGAATCGAAAGATTCTCC ((((((....)))..))) , give its measured folding enthalpy value.
Output: -13.5

Task: Look up folding enthalpy of GGTCCGGGAAACCGGGTC (..((((....))))..) and report it.
Output: -12.7

Task: Consider the sequence GTAGACGAAAGTCATAC ((((((....))).))) and give its recorded folding enthalpy.
Output: -12.8

Task: Supply reported folding enthalpy belonging to this sequence: GATTTGGGAAACCGAATC ((((.((....)).))))
Output: -31.1

---

- procedure.text: melting temperature; fluorescence melt of hairpins on a sequencing array, two-state fit, raised by 9.35 °C to match UV melts
- setup.conditions: sodium 0.088 M
Label Criterion met when Tm is at or above 50 °C; anything below gets Criterion not met.

Task: Check the entry GATCCATCCATGGATC ((((((....)))))) : does Tm equal or exceed 50 °C?
Output: Criterion met

Task: Dear colleague, could you confirm whether GATCCCTCCCGGGATC ((((((....)))))) has Tm at or above 50 °C?
Output: Criterion met

Task: Kindly determine if Tm recorded for GTGTACGAAAGTACCAC ((((((....))).))) is above or exactly 50 °C.
Output: Criterion not met

Task: I'd appreciate it if you could say whether CGCTTTCGGAAACGAGCG (((..(((....)))))) has Tm at least equal to 50 °C.
Output: Criterion not met

---

- procedure.text: folding enthalpy; higher = less favourable; fluorescence melt of hairpins on a sequencing array, two-state fit
- setup.conditions: sodium 0.088 M
measured.quantity: folding enthalpy
# output: numeric value plus its unit

Task: Give me measured folding enthalpy, please, for this sequence: GCAAGGCGAAAGCAATGC (((..((....))..)))
Output: -16 kcal/mol

Task: Please list folding enthalpy recorded for the sequence GGTGCTGGAAACAGCGTC (..((((....))))..)
Output: -12.8 kcal/mol

Task: Read the entry GGCACCGAAAGGTATGCC ((((((....)))..))) and write its reported folding enthalpy.
Output: -25.1 kcal/mol

Task: Please report the measured folding enthalpy for GCGCCACCGAAAGGTCGC (((..(((....))))))
Output: -23.5 kcal/mol

Task: Supply measured folding enthalpy of GCGTGTGGACGC ((((....)))) in your reply.
Output: -13.9 kcal/mol

Task: Please give the documented folding enthalpy of GCTATCGGAAACGGTAGC ((((.((....)).))))
Output: -38 kcal/mol

Task: Could you please provide reported folding enthalpy for GAACACGAAAGTGTTTTC ((((((....)))..))) ? Thanks!
Output: -15.1 kcal/mol

Task: // Input: GTAGTTCCGAAAGGATAC (((..(((....)))))) . Output its folding enthalpy only.
Output: -11.6 kcal/mol

Task: Consider the sequence GATCTTCTCGAAGATC ((((((....)))))) . State its measured folding enthalpy.
Output: -39 kcal/mol

Task: Complete the entry with folding enthalpy for GGCTCTCGAAAGAGTGCC (((.(((....))).)))
Output: -49.1 kcal/mol

Task: Indicate the recorded folding enthalpy value for this sequence: GACCAACGAAAGTTGTC (((.(((....))))))
Output: -14.5 kcal/mol

Task: Supply recorded folding enthalpy for GAACTCGAAAGAGTTC ((((((....)))))) here.
Output: -39.3 kcal/mol

Task: // Input: GAGACTGGAAACGGTCTC (((((.(....).))))) . Output its folding enthalpy only.
Output: -46 kcal/mol

Task: Please report folding enthalpy for the following sequence: GAGCTGGAAACAGCTC ((((((....))))))
Output: -26 kcal/mol

Task: Give recorded folding enthalpy. GCACAGCGAAAGCCCTGC (((..((....))..)))
Output: -8.82 kcal/mol

Task: Quote folding enthalpy reported for GCGAAGCGAAAGCATTGC ((.(.((....)).).)) please.
Output: -7.27 kcal/mol

Task: Read the entry GAAATCACGAAAGTGTTC (((..(((....)))))) and write its reported folding enthalpy.
Output: -9 kcal/mol

Task: Give recorded folding enthalpy. GCGGTGGGAAACCATCGC (((.(((....))).)))
Output: -40.9 kcal/mol

Task: Identify measured folding enthalpy corresponding to GGGACTGCGAAAGCACCC (((..(((....))))))
Output: -9.02 kcal/mol

Task: Supply measured folding enthalpy of GATCGTAGAGACGATC ((((((....)))))) in your reply.
Output: -25.4 kcal/mol

Task: Please report folding enthalpy for the following sequence: GTCCACGAAAGTGTGAC ((((((....))).)))
Output: -22.4 kcal/mol

Task: Identify measured folding enthalpy corresponding to GGAGTCGAAAGACAATCC ((((((....)))..)))
Output: -15.4 kcal/mol

Task: Give me measured folding enthalpy, please, for this sequence: GCGAACCTCGC ((((...))))
Output: -17.7 kcal/mol

Task: Give a short answer stating reported folding enthalpy for GAAGTCCGAAAGGAATTC (((.(((....))).))) .
Output: -30.9 kcal/mol

Task: Give recorded folding enthalpy. GATCGAAAGTCGATC ((((((...))))))
Output: -30.5 kcal/mol

Task: For GAGTTCGGAAACGAACTC (((((((....))))))) , write its folding enthalpy.
Output: -39.4 kcal/mol
